Field: EC90. Provide a value for each of the molecules that follow.
- method_notes: Activity against Lamivudine-resistant virus (HIV-1M184V) in human PBM cells, expressed as EC90
- Assay type: functional
- protocol_conditions: PBMC
Report the figure in µM without appending any unit label.

What value of EC90 has been reported for the following molecule? Nc1ccn([C@@H]2CC[C@H](CO)O2)c(=O)n1
28.2

Param item = Nc1ccn([C@@H]2C=C(F)[C@H](CO)O2)c(=O)n1 ; retrieve measured EC90.
15.7

Which EC90 reading was recorded for the molecule Cc1cn([C@H]2C[C@H](N=[N+]=[N-])[C@@H](CO)O2)c(=O)[nH]c1=O ?
0.025

Dear colleague, I am looking for the recorded EC90 of the following molecule: Nc1nc(=O)n([C@@H]2C=C(F)[C@H](CO)O2)cc1F
67.4

----------
Would you kindly list pIC50 for each of these compounds?
- System: Vero
- method_notes: Cytotoxicity determined in (african green monkey kidney) Vero cells, expressed as IC50
- Assay type: functional, cell-based
- protocol_conditions: Chlorocebus sabaeus
pIC50: −log10 of the molar value.

Entry Nc1nc(O)c2ncn([C@H]3C=C(F)[C@H](CO)O3)c2n1 has what pIC50?
< 4.00

Can you share its pIC50? I mean this compound: O=c1nc(O)ccn1[C@@H]1C=C(F)[C@H](CO)O1
< 4.00

pIC50 lookup needed for Nc1ccn([C@@H]2C=C(F)[C@H](CO)O2)c(=O)n1 , thanks.
< 4.00

Fill blank: measured pIC50 of the compound OC[C@@H]1O[C@@H](n2cnc3c(O)ncnc32)CC1(F)F is ____.
< 4.00

# lookup: pIC50 of Nc1nc(=O)n([C@@H]2CC(F)(F)[C@H](CO)O2)cc1F
< 4.00

Which measured pIC50 value corresponds to Cc1cn([C@H]2C=C(F)[C@H](CO)O2)c(=O)nc1O ?
< 4.00

Entry Nc1ccn([C@H]2CC(F)(F)[C@H](CO)O2)c(=O)n1 has what pIC50?
< 4.00

# get_value(readout='pIC50', item= Nc1nc(=O)n([C@H]2C=C(F)[C@H](CO)O2)cc1F )
< 4.00

Name the recorded pIC50 for O=c1nc(O)ccn1[C@@H]1CC(F)(F)[C@H](CO)O1 .
< 4.00

Which pIC50 reading was recorded for the compound Nc1ncnc2c1ncn2[C@H]1CC(F)(F)[C@H](CO)O1 ?
< 4.00

Need pIC50, item OC[C@H]1O[C@@H](n2cnc3c(O)ncnc32)C=C1F
< 4.00

----------
- method_notes: Fold increase ratio of HIV-1M184V to HIV-1XXBRU
- Type: functional
reported_property: FI
API doc: respond with a numeric literal and nothing else, no unit.

May I ask what FI has been recorded for Nc1ccn([C@@H]2C=C(F)[C@H](CO)O2)c(=O)n1 ?
104

Entry Nc1nc(=O)n([C@@H]2C=C(F)[C@H](CO)O2)cc1F has what FI?
1210

Please look up its FI: Nc1ccn([C@@H]2CC[C@H](CO)O2)c(=O)n1
17

Could you share which FI value was measured for Cc1cn([C@H]2C[C@H](N=[N+]=[N-])[C@@H](CO)O2)c(=O)[nH]c1=O ?
0.3

----------
- method_notes: Activity against Lamivudine-resistant virus (HIV-1M184V) in human PBM cells, expressed as EC50
- Format: functional, cell-based
reported_property: pEC50
For clarity, pEC50 is expressed as the negative log10 of concentration in mol/L.

Using the record for Nc1ccn([C@@H]2C=C(F)[C@H](CO)O2)c(=O)n1 , report its pEC50.
5.62

For the compound Cc1cn([C@H]2C[C@H](N=[N+]=[N-])[C@@H](CO)O2)c(=O)[nH]c1=O , what pEC50 is on record?
8.52

Consider the compound Nc1ccn([C@@H]2CC[C@H](CO)O2)c(=O)n1 and give its measured pEC50.
5.54

Given the compound Nc1nc(=O)n([C@@H]2C=C(F)[C@H](CO)O2)cc1F , what is its reported pEC50?
4.96

These measurements were taken from ChEMBL document CHEMBL1136794.
